Molecular target: acetylcholine receptor
Assay: SPR, AchR immobilised on CM5 chip, peptide at 10 uM
measurement.name: Binding affinity (RU)

Check out these entries, answers already filled in.
- binder: "RRVYYR [6mer-1-441]"
  Binding affinity (RU): 146
- binder: "RCKVK [5mer-870]"
  Binding affinity (RU): 25
- binder: "RHAPK [5mer-1183]"
  Binding affinity (RU): 13

1 = RKKMK [5mer-891]
2 = RKVLLR [6mer-1-406]
3 = KKSKR [5mer-1163]
Sort low-to-high on Binding affinity (RU), please. Write out the labels following the order that was asked for.
3, 1, 2

A = KKGQYK [6mer-1-420]
B = KPPDR [5mer-856]
Please indicate which entry, A or B , has the lower recorded Binding affinity (RU) value. # reply format: chosen label
B
(B: 23 RU, A: 148 RU)
